The reported measurements were obtained from patent US20260306644A1.

MEASURED_ON: SARS-CoV-2 Spike A (wild-type) (Severe acute respiratory syndrome coronavirus 2, UniProt P0DTC2)
Construct: purchased Meso Scale Diagnostics, LLC V-PLEX SARS-CoV-2 Panel 13 (ACE2) Kit / Panel 23 (ACE2) Kit
PROCEDURE_SUMMARY: MSD ACE2 competition assay (inhibition of Spike binding with ACE2, ECL), A (wild-type)
SETTINGS: read-out: IC50 Wild Type, Wild Type Spike
Positions of bridges follow the written chain, without caps; N, C: chain ends. No end group written: not given here.
ENDPOINT_NAME: IC50 (nM)
Your answer is read as nM, so omit the unit and give the number.

-- ask State the recorded IC50 for this entry: Ac-QKIYEICRLLDELGHAEASMRCSDLIYEFMKKGDCAWHLGELVWCT-NH2 (disulfide 7-22, 35-45) [Compound 140]
-- reply 1560

-- ask Give the measured IC50 of Ac-DKEWILQKIYEIMRLLDELGHAEASMRVSDLIYEFMKKGGGGGGGGGDCAWHLGELVWCT (disulfide 49-59) [Compound 166] .
-- reply 16.6

* * *

MEASURED_ON: native human IgG1
PROCEDURE_SUMMARY: Ligand binding to native human IgG1 by Bio-Layer Interferometry (BLI)
SETTINGS: read-out: Octet Native IgG1 Binding KD
Positions of bridges follow the written chain, without caps; N, C: chain ends.
ENDPOINT_NAME: Kd

-- ask Fill blank: measured Kd of the substance Ac-DKEWILQKIYEIMRLLDELGHAEASMRVSDLIYEFMKKGPASPASPASPASDCAWHLGELVWCT (disulfide 53-63) [Compound 167] is ____.
-- reply < 1 nM

* * *

Can you tell me IC50 for the items I'm about to list?
MEASURED_ON: SARS-CoV-2 Spike A (wild-type) (Severe acute respiratory syndrome coronavirus 2)
Construct: purchased Meso Scale Diagnostics, LLC V-PLEX SARS-CoV-2 Panel 13 (ACE2) Kit / Panel 23 (ACE2) Kit
PROCEDURE_SUMMARY: MSD ACE2 competition assay (inhibition of Spike binding with ACE2, ECL), A (wild-type)
SETTINGS: IC50 Wild Type, Wild Type Spike
Positions of bridges follow the written chain, without caps; N, C: chain ends. No end group written: not given here.
The figure you give is taken to be in nM; do not add the unit.

-- ask Tell me the measured IC50 of DKEWILQKIYEIMRLLDELGHAEASMRVSDLIYEFMKKGDERLLEEAERLLEEVERDCAWHLGELVWCT (disulfide 58-68) [Compound 111] , please.
-- reply 1.39

-- ask GET /values?readout=IC50&item= DKEWILQKIYEIMRLLDELGHAEASMRVSDLIYEFMKKGDERLLEEAERLLEEVERGGGGGGGGDCAWHLGELVWCT-NH2 (disulfide 66-76) [Compound 169]
-- reply 1.22

-- ask Request the reported IC50 associated with Ac-DKEWILQKIYEIMRLLDELGHAEASMRVSDLIYEFMKKGDERLLEEAERLLEEVERGGGGGGDCAWHLGELVWCT-NH2 (disulfide 64-74) [Compound 143]
-- reply 1.35

-- ask For the substance shown here, DKEWILQKIYEIMRLLDELGHAEASMRVSDLIYEFMKKGDERLLEEAERLLEEVERGGDCAWHLGELVWCT-NH2 (disulfide 60-70) [Compound 172] , give the reported IC50.
-- reply 1.05

-- ask # input substance: Ac-DKEWILQKIYEIMRLLDELGHAEASMRVSDLIYEFMKKGDERLLEEAERLLEEVERGGGGDCAWHLGELVWCT-NH2 (disulfide 62-72) [Compound 144] ; wanted: its IC50
-- reply 1.17

-- ask Query: IC50; subject: Ac-DKEWILQKIYEIMRLLDELGHAEASMRVSDLIYEFMKKGPASPASPASPASDCAWHLGELVWCT (disulfide 53-63) [Compound 167]
-- reply 10.8

-- ask Consider the substance DKEWILQKIYEIMRLLDELGHAEASMRVSDLIYEFMKKGDERLLEEAERLLEEVERGGGGGGDCAWHLGELVWCT-NH2 (disulfide 64-74) [Compound 170] and give its measured IC50.
-- reply 1.52

-- ask Endpoint output: IC50 of Ac-DCAWHLGELVWCTILQKIYEIMRLLDELGHAEASMRVSDLIYEFMKK (disulfide 2-12) [Compound 122] . Value?
-- reply 33.5
